Listed molecules paired with reported MIC90
# System: Streptococcus pneumoniae
# method-notes: Antibacterial activity against penicillin-intermediate Streptococcus pneumoniae […] by agar dilution method
# Format: functional
outcome-measure: MIC90 (µg/mL)

molecule | unit-of-measure | op | numeric-result
COc1c(N2CCNC(C)C2)c(F)cc2c(=O)c(C(=O)O)cn(C3CC3)c12 (centres undefined) [GATIFLOXACIN] | µg/mL | = | 0.5
C[C@H]1COc2c(N3CCN(C)CC3)c(F)cc3c(=O)c(C(=O)O)cn1c23.C[C@H]1COc2c(N3CCN(C)CC3)c(F)cc3c(=O)c(C(=O)O)cn1c23.O [LEVOFLOXACIN] | µg/mL | = | 1
CC[C@H]1OC(=O)[C@H](C)[C@@H](O[C@H]2C[C@@](C)(OC)[C@@H](O)[C@H](C)O2)[C@H](C)[C@@H](O[C@@H]2O[C@H](C)C[C@H](N(C)C)[C@H]2O)[C@](C)(O)C[C@@H](C)CN(C)[C@H](C)[C@@H](O)[C@]1(C)O [AZITHROMYCIN] | µg/mL | > | 64
CO/N=C1\CN(c2nc3c(cc2F)c(=O)c(C(=O)O)cn3C2CC2)CC1CN (centres undefined) [GEMIFLOXACIN] | µg/mL | = | 0.06
